- study_system: Delta-type opioid receptor (Mus musculus, UniProt P32300)
- Sequence (P32300 whole entry): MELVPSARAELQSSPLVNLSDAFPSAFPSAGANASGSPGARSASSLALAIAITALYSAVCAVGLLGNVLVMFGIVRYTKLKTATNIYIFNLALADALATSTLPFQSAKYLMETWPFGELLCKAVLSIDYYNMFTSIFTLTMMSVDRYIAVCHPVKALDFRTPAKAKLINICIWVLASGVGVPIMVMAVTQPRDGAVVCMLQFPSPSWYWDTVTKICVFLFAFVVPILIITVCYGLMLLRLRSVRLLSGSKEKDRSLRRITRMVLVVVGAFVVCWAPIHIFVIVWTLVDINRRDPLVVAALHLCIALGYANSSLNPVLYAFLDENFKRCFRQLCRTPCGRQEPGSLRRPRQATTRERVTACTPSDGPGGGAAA
- assay_overview: Antagonist activity at delta opioid receptor assessed as inhibition of deltorphin-2-induced contraction of mouse vas deferens
Where a SMILES comes first, the peptide text is derived from it. [ ]: non-standard residue; d: D form. The star is where a group is joined. Dmt = Cc1cc(O)cc(C)c1C[C@H](N)C(=O)O; Tic = O=C(O)[C@@H]1Cc2ccccc2CN1; Cbz = O=C(OCc1ccccc1)*; NHBn = c1ccc(CN*)cc1; NHPh = c1ccc(N*)cc1
assay_readout: Kb (nM)
Give just the numeric value; nM need not be written.

As a guide, the following entries are already answered.
CC(=O)NCCCC[C@H](NC(=O)[C@@H]1Cc2ccccc2CN1C(=O)[C@@H](N)Cc1c(C)cc(O)cc1C)C(=O)NCc1ccccc1 (H-[Dmt]-[Tic]-Lys(Ac)-NHBn) :: 0.0398
CC(=O)NCCCC[C@H](NC(=O)[C@@H]1Cc2ccccc2CN1C(=O)[C@@H](N)Cc1c(C)cc(O)cc1C)C(=O)Nc1ccccc1 (H-[Dmt]-[Tic]-Lys(Ac)-NHPh) :: 0.001
Cc1cc(O)cc(C)c1C[C@H](N)C(=O)N1Cc2ccccc2C[C@H]1C(=O)N[C@@H](CCCCN)C(=O)NCc1ccccc1 (H-[Dmt]-[Tic]-Lys-NHBn) :: 977
Cc1cc(O)cc(C)c1C[C@H](N)C(=O)N1Cc2ccccc2C[C@H]1C(=O)N[C@@H](CCCCNC(=O)OCc1ccccc1)C(=O)Nc1ccccc1 (H-[Dmt]-[Tic]-Lys(Cbz)-NHPh) :: 1700
Cc1cc(O)cc(C)c1C[C@H](N)C(=O)N1Cc2ccccc2C[C@H]1C(=O)N[C@@H](CCCCNC(=O)OCc1ccccc1)C(=O)NCc1ccccc1 (H-[Dmt]-[Tic]-Lys(Cbz)-NHBn) :: 617
Cc1cc(O)cc(C)c1C[C@H](N)C(=O)N1Cc2ccccc2C[C@H]1C(=O)N[C@@H](CCCCN)C(=O)Nc1ccccc1 (H-[Dmt]-[Tic]-Lys-NHPh) :: 4170

Let's switch to this compound now.
For the compound Cc1cc(O)cc(C)c1C[C@H](N)C(=O)N1Cc2ccccc2C[C@H]1C(=O)NCC(=O)O (H-[Dmt]-[Tic]-Gly-OH) , give its reported Kb.
1.41

###

// values below are pKi; system is Mu-type opioid receptor (Rattus norvegicus, UniProt P33535)
Sequence (P33535 whole entry): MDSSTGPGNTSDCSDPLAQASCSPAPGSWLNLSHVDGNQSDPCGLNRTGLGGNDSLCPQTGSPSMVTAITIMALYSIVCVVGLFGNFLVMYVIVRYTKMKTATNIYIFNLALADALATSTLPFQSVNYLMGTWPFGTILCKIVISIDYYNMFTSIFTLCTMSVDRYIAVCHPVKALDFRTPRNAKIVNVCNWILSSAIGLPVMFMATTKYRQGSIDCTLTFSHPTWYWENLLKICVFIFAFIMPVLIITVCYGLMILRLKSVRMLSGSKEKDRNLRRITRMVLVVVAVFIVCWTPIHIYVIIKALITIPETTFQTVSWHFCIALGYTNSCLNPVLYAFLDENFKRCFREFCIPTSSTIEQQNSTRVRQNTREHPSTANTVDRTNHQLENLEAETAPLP
Where a SMILES comes first, the peptide text is derived from it. [ ]: non-standard residue; d: D form. The star is where a group is joined. Dmt = Cc1cc(O)cc(C)c1C[C@H](N)C(=O)O; Tic = O=C(O)[C@@H]1Cc2ccccc2CN1; Cbz = O=C(OCc1ccccc1)*; NHPh = c1ccc(N*)cc1
Kindly note that pKi refers to -log10 of the concentration in mol/L and answer with the value alone.

As a guide, the following entries are already answered.
Cc1cc(O)cc(C)c1C[C@H](N)C(=O)N1Cc2ccccc2C[C@H]1C(=O)N[C@@H](CCCCNC(=O)OCc1ccccc1)C(=O)Nc1ccccc1 (H-[Dmt]-[Tic]-Lys(Cbz)-NHPh) :: 8.83
Cc1cc(O)cc(C)c1C[C@H](N)C(=O)N1Cc2ccccc2C[C@H]1C(=O)N[C@@H](CCCCN)C(=O)Nc1ccccc1 (H-[Dmt]-[Tic]-Lys-NHPh) :: 9.03

Let's switch to this compound now.
Provide measured pKi on Mu-type opioid receptor (Rattus norvegicus, UniProt P33535) for CC(=O)NCCCC[C@H](NC(=O)[C@@H]1Cc2ccccc2CN1C(=O)[C@@H](N)Cc1c(C)cc(O)cc1C)C(=O)Nc1ccccc1 (H-[Dmt]-[Tic]-Lys(Ac)-NHPh) please.
9.20
